# assay-target: 5-hydroxytryptamine receptor 2B (Homo sapiens, UniProt P41595)
# Sequence (P41595 whole entry): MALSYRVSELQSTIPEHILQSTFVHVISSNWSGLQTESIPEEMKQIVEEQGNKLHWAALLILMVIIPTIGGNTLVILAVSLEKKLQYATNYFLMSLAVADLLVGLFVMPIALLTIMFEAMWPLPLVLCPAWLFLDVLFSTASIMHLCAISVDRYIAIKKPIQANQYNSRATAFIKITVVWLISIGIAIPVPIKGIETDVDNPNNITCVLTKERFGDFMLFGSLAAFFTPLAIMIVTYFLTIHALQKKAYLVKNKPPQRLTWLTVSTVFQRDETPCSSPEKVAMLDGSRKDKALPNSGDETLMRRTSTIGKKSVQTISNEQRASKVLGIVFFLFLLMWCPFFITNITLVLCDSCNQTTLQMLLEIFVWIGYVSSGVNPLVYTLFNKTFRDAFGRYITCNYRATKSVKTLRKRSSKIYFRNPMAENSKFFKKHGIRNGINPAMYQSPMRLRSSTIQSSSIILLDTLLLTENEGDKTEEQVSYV
# test-name: Binding to human 5HT2B receptor expressed in CHO cells relative to 5HT
# Format: cell-based
Catalogue of molecules with associated Efficacy
Could you give me the number in %? Just the number is fine.

C[C@H](N)Cn1ccc2cc(Cl)c3ncccc3c21
61
C[C@H](N)Cn1ccc2ccc3cccnc3c21
60
C[C@H](N)Cn1ccc2ccc3cnccc3c21
70
C=CCN[C@@H](C)Cn1ccc2ccc3ncccc3c21
70
C[C@H](N)Cn1ccc2cc(F)c(Cl)cc21
71

Here is the next item to consider.
Could you tell me which Efficacy is on file for `C[C@@H](Cn1ccc2ccc3ncccc3c21)NCc1ccccc1Cl` ?
72

* * *

Below are Ki values measured for 5-hydroxytryptamine receptor 2B (Homo sapiens).
Could you give me the number in nM? Just the number is fine.

Consider the worked cases shown below.
C=CCN[C@@H](C)Cn1ccc2ccc3ncccc3c21
455
C[C@@H](Cn1ccc2ccc3ncccc3c21)NCC1CCCCC1
624

Could you tell me which Ki is on file for `C[C@@H](Cn1ccc2ccc3ncccc3c21)NCc1ccc2ccccc2c1` ?
136

Could you tell me which Ki is on file for `C[C@H](N)Cn1ccc2cc(Cl)c3ncccc3c21` ?
18

* * *

Catalogue of molecules with associated Ki
# assay-target: UniProt P28335
# Sequence (P28335 whole entry): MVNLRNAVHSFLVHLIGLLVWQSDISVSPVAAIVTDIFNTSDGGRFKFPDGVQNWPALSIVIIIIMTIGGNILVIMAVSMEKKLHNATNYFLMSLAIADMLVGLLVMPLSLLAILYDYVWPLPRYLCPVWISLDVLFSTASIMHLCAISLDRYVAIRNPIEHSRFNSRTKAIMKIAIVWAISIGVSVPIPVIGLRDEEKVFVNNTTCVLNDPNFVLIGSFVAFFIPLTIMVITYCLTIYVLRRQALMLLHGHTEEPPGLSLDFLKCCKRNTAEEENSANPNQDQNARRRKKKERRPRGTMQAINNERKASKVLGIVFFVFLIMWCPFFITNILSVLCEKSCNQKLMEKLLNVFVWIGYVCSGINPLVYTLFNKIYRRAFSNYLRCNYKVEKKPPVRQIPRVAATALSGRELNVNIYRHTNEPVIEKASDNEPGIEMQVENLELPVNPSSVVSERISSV
Could you give me the number in nM? Just the number is fine.

Consider the worked cases shown below.
C[C@@H](Cn1ccc2ccc3ncccc3c21)NCC1CCCCC1
78
C=CCN[C@@H](C)Cn1ccc2ccc3ncccc3c21
86

Here is the next item to consider.
Could you tell me which Ki is on file for `C[C@@H](Cn1ccc2ccc3ncccc3c21)NCc1ccc2c(c1)OCO2` ?
16
